# measured target: primase (UL5/UL8/UL52) (Human herpesvirus 1)
# assay method text: Inhibition of NTP polymerization onto primer:templates
# Format: biochemical
# assay conditions: inhibition of GTP polymerization, 800 μM GTP, DNAC
measured property: IC50 (mM)
Give bare numbers, in mM.

{"columns": ["molecule", "unit spec", "IC50"],
 "data": [
  ["Nc1nc2c(ncn2[C@H]2CC[C@@H](COP(=O)(O)OP(=O)(O)OP(=O)(O)O)O2)c(=O)[nH]1", "mM", 1.1]
]}

Next up:
Please report the recorded IC50 for Nc1nc(O)c2ncn(COC(CO)COP(=O)(O)OP(=O)(O)OP(=O)(O)O)c2n1 (centres unmarked) [GCVTP, ganciclovir triphosphate] .
3.4

---

# measured target: primase (UL5/UL8/UL52) (Human herpesvirus 1, UniProt P10236)
# Sequence (P10189 whole entry): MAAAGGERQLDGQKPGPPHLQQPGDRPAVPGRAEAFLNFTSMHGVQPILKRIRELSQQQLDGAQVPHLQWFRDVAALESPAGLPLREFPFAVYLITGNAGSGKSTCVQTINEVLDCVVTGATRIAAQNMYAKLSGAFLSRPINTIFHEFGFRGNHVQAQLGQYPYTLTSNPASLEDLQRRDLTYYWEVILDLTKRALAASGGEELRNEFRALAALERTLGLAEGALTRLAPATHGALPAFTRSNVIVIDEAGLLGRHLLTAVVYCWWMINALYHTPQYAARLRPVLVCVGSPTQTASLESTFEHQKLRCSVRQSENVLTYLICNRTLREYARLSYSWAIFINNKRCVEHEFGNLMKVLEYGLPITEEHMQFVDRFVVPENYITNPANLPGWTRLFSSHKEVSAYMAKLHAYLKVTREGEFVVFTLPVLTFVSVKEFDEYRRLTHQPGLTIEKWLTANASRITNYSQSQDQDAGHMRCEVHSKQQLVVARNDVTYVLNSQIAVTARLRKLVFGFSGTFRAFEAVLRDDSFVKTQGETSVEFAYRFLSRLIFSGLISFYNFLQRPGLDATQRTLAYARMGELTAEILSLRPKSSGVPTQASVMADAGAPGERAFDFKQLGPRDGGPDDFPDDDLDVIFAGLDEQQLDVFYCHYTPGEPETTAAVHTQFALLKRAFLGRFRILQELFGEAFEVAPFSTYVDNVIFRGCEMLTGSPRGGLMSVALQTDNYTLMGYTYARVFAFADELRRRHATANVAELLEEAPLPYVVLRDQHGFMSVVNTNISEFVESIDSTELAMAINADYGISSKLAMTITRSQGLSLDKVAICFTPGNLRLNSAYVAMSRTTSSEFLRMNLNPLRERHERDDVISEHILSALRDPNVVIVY
# Sequence (P10192 whole entry, further chain): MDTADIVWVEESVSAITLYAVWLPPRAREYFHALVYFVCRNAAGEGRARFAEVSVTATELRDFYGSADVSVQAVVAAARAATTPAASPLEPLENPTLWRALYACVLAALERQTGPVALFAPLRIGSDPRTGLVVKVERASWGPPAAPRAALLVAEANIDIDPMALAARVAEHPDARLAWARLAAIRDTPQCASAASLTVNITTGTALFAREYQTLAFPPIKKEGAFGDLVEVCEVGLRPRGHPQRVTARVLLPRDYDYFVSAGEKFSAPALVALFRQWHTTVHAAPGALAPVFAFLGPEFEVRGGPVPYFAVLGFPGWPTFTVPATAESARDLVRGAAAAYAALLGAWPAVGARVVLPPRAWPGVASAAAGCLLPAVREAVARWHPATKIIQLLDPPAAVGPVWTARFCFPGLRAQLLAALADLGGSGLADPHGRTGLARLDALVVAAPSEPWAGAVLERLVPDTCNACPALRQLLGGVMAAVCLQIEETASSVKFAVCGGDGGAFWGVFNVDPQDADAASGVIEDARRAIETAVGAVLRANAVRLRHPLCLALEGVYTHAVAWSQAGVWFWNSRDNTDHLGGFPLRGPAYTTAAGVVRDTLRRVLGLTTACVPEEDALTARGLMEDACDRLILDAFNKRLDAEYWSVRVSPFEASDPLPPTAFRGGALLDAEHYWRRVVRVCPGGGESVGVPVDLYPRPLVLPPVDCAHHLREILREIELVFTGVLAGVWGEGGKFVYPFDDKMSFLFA
# Sequence (P10236 whole entry): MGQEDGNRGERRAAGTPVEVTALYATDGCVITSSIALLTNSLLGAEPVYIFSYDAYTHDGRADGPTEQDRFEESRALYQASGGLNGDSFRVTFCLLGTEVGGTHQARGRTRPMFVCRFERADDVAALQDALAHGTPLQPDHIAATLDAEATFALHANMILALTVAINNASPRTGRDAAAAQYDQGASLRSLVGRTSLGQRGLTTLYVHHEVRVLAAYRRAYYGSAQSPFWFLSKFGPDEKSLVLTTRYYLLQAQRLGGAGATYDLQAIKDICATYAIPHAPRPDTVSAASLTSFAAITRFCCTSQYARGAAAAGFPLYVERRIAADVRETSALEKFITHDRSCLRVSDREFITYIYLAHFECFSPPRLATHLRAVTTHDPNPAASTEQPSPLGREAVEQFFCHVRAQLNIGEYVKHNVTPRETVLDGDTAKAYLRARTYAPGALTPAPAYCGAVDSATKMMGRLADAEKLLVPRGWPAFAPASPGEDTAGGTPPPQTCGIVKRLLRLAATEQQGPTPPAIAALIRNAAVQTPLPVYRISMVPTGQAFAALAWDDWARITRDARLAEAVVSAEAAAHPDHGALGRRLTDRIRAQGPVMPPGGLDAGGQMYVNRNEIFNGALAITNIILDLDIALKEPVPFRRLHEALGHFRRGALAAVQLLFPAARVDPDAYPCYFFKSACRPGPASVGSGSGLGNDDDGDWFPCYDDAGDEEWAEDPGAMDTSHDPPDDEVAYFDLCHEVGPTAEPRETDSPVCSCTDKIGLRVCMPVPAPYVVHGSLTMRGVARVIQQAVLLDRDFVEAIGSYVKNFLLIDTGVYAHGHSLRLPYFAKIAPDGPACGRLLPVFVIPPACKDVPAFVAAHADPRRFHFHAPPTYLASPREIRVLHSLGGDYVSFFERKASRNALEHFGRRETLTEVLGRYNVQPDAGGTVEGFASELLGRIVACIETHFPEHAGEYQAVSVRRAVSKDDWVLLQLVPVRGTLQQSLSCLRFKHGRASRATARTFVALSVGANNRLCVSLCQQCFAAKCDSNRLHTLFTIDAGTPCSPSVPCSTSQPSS
# assay method text: Polymerization of nucleoside triphosphates onto a RNA primer:DNA template
# Assay type: biochemical, herpes simplex virus I
# assay conditions: primer:template DNAT, DNAC or DNAG
Assign VMax to each entry below.
One number for each entry, in pmol/h.

{"columns": ["molecule", "unit spec", "VMax"],
 "data": [
  ["Nc1ncnc2c1ncn2[C@@H]1O[C@H](COP(=O)(O)OP(=O)(O)OP(=O)(O)O)[C@@H](O)[C@H]1O [ATP]", "pmol/h", 0.23],
  ["Nc1ncnc2c1ncn2[C@H]1C[C@H](O)[C@@H](COP(=O)(O)OP(=O)(O)OP(=O)(O)O)O1 [2′-dATP]", "pmol/h", 0.024]
]}

GET /values?readout=VMax&item= Nc1nc2c(ncn2[C@H]2C[C@H](O)[C@@H](COP(=O)(O)OP(=O)(O)OP(=O)(O)O)O2)c(=O)[nH]1 [2′-dGTP]
0.18

---

# measured target: primase (UL5/UL8/UL52) (Human herpesvirus 1)
# assay method text: Incorporation of nucleotides as the 5′-terminal nucleotide of the primer
# Type: biochemical, herpes simplex virus I
measured property: VMax (pmol/min)
Answers are plain numbers, in pmol/min.

// input: 4 compounds below; output: VMax for each
1. Nc1ncnc2c1ncn2[C@H]1C[C@H](O)[C@@H](COP(=O)(O)OP(=O)(O)OP(=O)(O)O)O1
2. Nc1ncnc2c1ncn2[C@@H]1O[C@H](COP(=O)(O)OP(=O)(O)OP(=O)(O)O)[C@@H](O)[C@@H]1O [AraATP, arabionfuranosyladenine triphosphate]
3. Nc1ncnc2c1ncn2[C@@H]1O[C@H](COP(=O)(O)OP(=O)(O)OP(=O)(O)O)[C@@H](O)[C@H]1O
4. Nc1nc2c(ncn2[C@@H]2O[C@H](COP(=O)(O)OP(=O)(O)OP(=O)(O)O)[C@@H](O)[C@H]2O)c(=O)[nH]1

1: 20; 2: 0.04; 3: 14; 4: 1.1

---

# measured target: primase (UL5/UL8/UL52) (Human herpesvirus 1, UniProt P10236)
# assay method text: Primer synthesis on d
# Type: biochemical, herpes simplex virus I
# assay conditions: template d(GTCT)15, ATP, GTP, 800 μM analogue
measured property: incorporation by primase opposite template dG (new products of altered mobility)

Record excerpt, results attached:
{"columns": ["molecule", "measured target", "reported measurement"],
 "data": [
  ["Nc1ccn([C@@H]2O[C@H](COP(=O)(O)OP(=O)(O)OP(=O)(O)O)[C@@H](O)[C@@H]2O)c(=O)n1 [AraCTP, arabinofuranosylcytosine triphosphate]", "primase (UL5/UL8/UL52) (Human herpesvirus 1, UniProt P10236)", "polymerized"],
  ["Nc1ccn([C@@H]2O[C@H](COP(=O)(O)OP(=O)(O)OP(=O)(O)O)[C@@H](O)[C@H]2O)c(=O)n1", "primase (UL5/UL8/UL52) (Human herpesvirus 1, UniProt P10236)", "readily incorporates"],
  ["Nc1ccn(C2SC(COP(=O)(O)OP(=O)(O)OP(=O)(O)O)C(O)C2O)c(=O)n1 (stereo not drawn)", "primase (UL5/UL8/UL52) (Human herpesvirus 1, UniProt P10236)", "polymerized"],
  ["Nc1ccn([C@H]2C[C@H](O)[C@@H](COP(=O)(O)OP(=O)(O)OP(=O)(O)O)O2)c(=O)n1", "primase (UL5/UL8/UL52) (Human herpesvirus 1, UniProt P10236)", "readily incorporates"]
]}

Form field: incorporation by primase opposite template dG (new products of altered mobility) recorded for Nc1ccn([C@@H]2O[C@H](COP(=O)(O)OP(=O)(O)OP(=O)(O)O)[C@@H](O)C2(F)F)c(=O)n1 with primase (UL5/UL8/UL52) (Human herpesvirus 1, UniProt P10236) (enter value)
polymerized
